Data origin: PubChem BioAssay AID1578

Quick reference for inhibition among some compounds
assay: NOD1 signaling inhibitors, primary screen, cell-based, luminescence, uHTS (AID 1578); settings: NOD1-driven NF-kB luciferase reporter cells, at 4 µM, hits give high values;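 further: HEK-293T reporter cells stimulated with the NOD1 agonist gamma-tri-DAP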
The whole screen tested about 290,000 compounds, of which about 3,000 (1%) were called active. What follows is part of a selection rich in actives, with near analogues and random picks from the rest.
Report the figure in % without appending any unit label.

# example entries with known answers
>>> result_value("O=C(Nc1ccc(Oc2cccc(C(F)(F)F)c2)nc1)c1ccccc1")
10.3
>>> result_value("Cc1ccc(/C=N/N2CCN(C3c4ccccc4-c4ccccc43)CC2)s1")
0.2
>>> result_value("CCCCc1c(O)nc(SCC(=O)c2ccccc2)n(-c2ccccc2)c1=O")
-1.5

Incoming: Fill in: inhibition of "CC(C)(C)c1cc(NC(=O)Nc2ccc(Br)cc2Cl)no1" is ___
Outgoing: -19.7

Incoming: Next up: COc1cccc(CNS(=O)(=O)c2ccc3c(c2)CC(C)N3C(=O)C2CC2)c1 (configuration not stated)
Outgoing: 11.6

Incoming: Follow-up entry: "CC(C)(Cc1ccc(O)cc1)NC(=O)SCc1ccccc1"
Outgoing: 72.6

Incoming: Another compound to check: "CCc1cc(-c2[nH]ncc2-c2ccc(OC)cc2)c(O)cc1O"
Outgoing: 12.6

Incoming: Repeat with "O=C(Nc1ccccc1)c1cn2ccccc2n1"
Outgoing: 1.1

Incoming: Now try "Cc1c(CN(C)Cc2cn(C)nc2-c2ccccc2F)[nH]c2ccccc12" .
Outgoing: -13.2

Incoming: Please do the same for "CCc1cc(-c2[nH]ncc2-c2ccc3c(c2)OCO3)c(O)cc1O" as well.
Outgoing: 97.7

Incoming: Another compound to check: CCOC(=O)N1CCN(S(=O)(=O)N2CCCC(C(=O)NCCc3ccccc3)C2)CC1 (configuration not stated)
Outgoing: -26.5

Incoming: What do we get for CC(NS(=O)(=O)c1ccc(NC(=O)N2CCCCC2)cc1)c1ccccc1 (configuration not stated) ?
Outgoing: -19.3

Incoming: Next record, please: Cc1ccc(N2C(=O)C3C(c4ccccc4)N4CCCN4C3(C)C2=O)cc1 (configuration not stated)
Outgoing: -27.5

Incoming: And what about the compound "COc1cccc(NC(=O)C2CCN(S(C)(=O)=O)CC2)c1" ?
Outgoing: -30.4

Incoming: And CC1Cc2cc(S(=O)(=O)NCc3ccccc3)ccc2N1C(=O)C1CC1 (configuration not stated) ?
Outgoing: -4.7

Incoming: Also check "CCn1cc(C(=O)OCC(=O)c2cc(C)n(-c3ccccc3F)c2C)c(=O)c2ccc(C)nc21"
Outgoing: 10.8

Incoming: What would you report for "O=C(Nc1nccs1)c1cn2ccccc2n1" ?
Outgoing: 22.8

Incoming: Continue with "CCOc1ccc(-c2c(=O)n(OCC)c3ccccc3[n+]2[O-])cc1"
Outgoing: 3.2

Incoming: Would you mind doing "CCCc1cc(-c2[nH]ncc2-c2ccc3c(c2)OCCCO3)c(O)cc1O" as well?
Outgoing: 17.6
